Biological target: Cytochrome P450 3A7 (Homo sapiens)
Assay: Cytochrome P450 family 3 subfamily A member 7 (CYP3A7) small molecule antagonists: luciferase biochemical qHTS assay (AID 1963596); further: nearly all actives have a fitted effect of over 40% in size
Settings: P450-Glo CYP3A7 enzyme luminescence, 1 h; series mostly up to 57.4 µM
Source text: National Center for Advancing Translational Sciences [NCATS] Assay Overview: Cytochrome P450 (CYP) enzymes are membrane-bound hemeproteins that play a key role in metabolism of drugs and xenobiotics. […] The luciferin products formed are detected with a luciferin detection reagent, and the amount of light produced is proportional to CYP activity. […]
Results filed as inconclusive are left out. The source made the active and inactive calls. The call rests on the fitted dose curve; in most records, active means well fitted inhibition curve with a large enough effect; inconclusive means small, poorly fitted or top-dose-only effect; inactive means no such curve, though single readings can be large or run the other way.
Your answer must be one of the following: active, inactive

* CCOC(=O)c1ccccc1C(=O)OCC | inactive

Query: Call for entry C#CC(O)(C=CCl)CC (configuration not stated) :
Response: inactive

Query: Call for entry "NC(=O)c1cc([N+](=O)[O-])cc([N+](=O)[O-])c1" :
Response: active

Query: Call for entry CN1[C@@H]2CC[C@H]1CC(OC(=O)c1cc(Cl)cc(Cl)c1)C2 (some centres not stated) :
Response: inactive

Query: Call for entry CNC(C)[C@@H](O)c1ccc(O)cc1 (some centres not stated) :
Response: inactive

Query: Call for entry "Oc1cccc2cccnc12" :
Response: inactive

Query: Call for entry COC1CC(=C(c2cccs2)c2cccs2)C[N+](C)(C)C1 (configuration not stated) :
Response: inactive

Query: Call for entry "COc1ccc2c3c1O[C@H]1[C@H](O)CC[C@H]4[C@@H](C2)N(C)CC[C@@]341" :
Response: inactive

Query: Call for entry "Clc1ccccc1N1CCNCC1" :
Response: inactive

Query: Call for entry CCCCNCC(O)c1ccc(O)cc1 (configuration not stated) :
Response: inactive

Query: Call for entry "CC(C)(N)Cc1ccc(Cl)cc1" :
Response: inactive

Query: Call for entry "Cc1ccccc1CN1CCC(N2CCC(n3c(=O)[nH]c4ccccc43)CC2)CC1" :
Response: inactive

Query: Call for entry "CCN[C@@H](C)Cc1cccc(C(F)(F)F)c1" :
Response: inactive

Query: Call for entry "CC(C)[C@@H](CN1CC[C@@](C)(c2cccc(O)c2)[C@@H](C)C1)NC(=O)[C@H]1Cc2ccc(O)cc2CN1" :
Response: inactive

Query: Call for entry "OCCCCC#Cc1cncc(OC[C@@H]2CCN2)c1" :
Response: inactive

Query: Call for entry "CCN[C@H](C)Cc1cccc(C(F)(F)F)c1" :
Response: inactive

Query: Call for entry "O=[N+]([O-])c1ccc([As](=O)(O)O)cc1" :
Response: inactive

Query: Call for entry "COC(=O)c1ccccc1C(=O)OC" :
Response: inactive

Query: Call for entry "NC1(c2ccccc2)CCCCC1" :
Response: inactive

Query: Call for entry CCCC1CCCCN1 (configuration not stated) :
Response: inactive

Query: Call for entry "C#C[C@]1(O)CC[C@H]2[C@@H]3CCC4=CC(=O)CCC4=C3C=C[C@@]21CC" :
Response: inactive

Query: Call for entry CC(Cc1ccc(O)cc1)NCC(O)c1cc(O)cc(O)c1 (configuration not stated) :
Response: inactive

* * *

Molecular target: Cytochrome P450 3A7 (Homo sapiens)
Assay: Cytochrome P450 family 3 subfamily A member 7 (CYP3A7) small molecule antagonists: luciferase biochemical qHTS assay (AID 1963596); further: nearly all actives have a fitted effect of over 40% in size
Conditions: P450-Glo CYP3A7 enzyme luminescence, 1 h; series mostly up to 57.4 µM
Results filed as inconclusive are left out. The source made the active and inactive calls. Calls follow the shape of the dose curve; as a rule, active = well fitted inhibition curve with a large enough effect; inconclusive = small, poorly fitted or top-dose-only effect; inactive = no such curve, though single readings can be large or run the other way.
observedProperty: outcome

// solved cases for outcome follow
- ClCCN1CCCC1: inactive
- Nc1ccncc1: inactive
- CCCN1CCC[C@@H]2Cc3[nH]ncc3C[C@H]21: inactive
- CN(C)C(=O)Oc1cc(OC(=O)N(C)C)cc(C(O)CNC(C)(C)C)c1 (stereo not drawn): inactive
- O=C(O)c1ccc(=O)[nH]c1: inactive
- OC(O)C(Cl)(Cl)Cl: inactive
- Sc1ccccc1Cl: inactive
- COP(=O)(OC)OC=C(Cl)Cl: inactive

Query: For the molecule "CCN(CC)CCOC(=O)C(O)(c1ccccc1)c1ccccc1" , what outcome is on record?
Response: inactive

Query: For the molecule CN1C2CCC1CC(OC(=O)N1Cc3ccccc3NC1=O)C2 (stereo not drawn) , what outcome is on record?
Response: inactive

Query: For the molecule "CN[C@@H](C)[C@H](O)c1ccccc1" , what outcome is on record?
Response: inactive

Query: For the molecule "C=CCC1(CC(C)C)C(=O)NC(=O)NC1=O" , what outcome is on record?
Response: inactive

Query: For the molecule "NC(=O)OCCCc1ccccc1" , what outcome is on record?
Response: inactive

Query: For the molecule "O=[N+]([O-])c1cc([N+](=O)[O-])c2ccccc2c1" , what outcome is on record?
Response: inactive

* * *

Assay: Viability qHTS for spleen associated tyrosine kinase inhibitor (SYKi) naive MV4-11 cells (AID 1963823); further: nearly all actives have a fitted effect of over 40% in size
Conditions: MV4-11 AML viability, CellTiter-Glo luminescence, 72 h; series mostly up to 45 µM
Results filed as inconclusive are left out. The source made the active and inactive calls. The call rests on the fitted dose curve; in most records, active means well fitted cell-killing curve with a large enough effect; inconclusive means small, poorly fitted or top-dose-only effect, or effect the other way; inactive means no such curve, though single readings can be large or run the other way.
Your answer must be one of the following: active, inactive

- COc1ccc(CN2CCNCC2)c(OC)c1OC: inactive
- O=C(O)CCCc1ccc(N(CCCl)CCCl)cc1: inactive
- CC(C)=CC1C(C(=O)OCc2cccc(Oc3ccccc3)c2)C1(C)C (configuration not stated): inactive
- O=C(O)P(=O)(O)O: inactive
- CN1C(=O)COc2c(C(=O)NC3CN4CCC3CC4)cc(Cl)cc21 (configuration not stated): inactive
- Cc1nnc2n1-c1sc(CCc3ccc(CC(C)C)cc3)cc1C(c1ccccc1Cl)=NC2C (configuration not stated): active
- Cc1ccc(S(=O)(=O)N[C@@H](CCCCN)C(=O)CCl)cc1: inactive
- Cc1cccc(C)c1NC1=NCCCS1: inactive

Query: Call for entry CC(=O)O[C@@H]1CC2C(C)(C)C(=O)C=C[C@]2(C)C2CC[C@]3(C)C(=CC(=O)O[C@H]3c3ccoc3)[C@@]21C (some centres not stated) :
Response: active

Query: Call for entry "OCCCBr" :
Response: inactive

Query: Call for entry COC(=O)C12C(=O)C(C)(O)C(=O)C1(C)C(C)=CC1C34CCC(OC3=O)C(C)(CO)C4CCC12C (configuration not stated) :
Response: inactive

Query: Call for entry "Clc1ccc(N2C[C@H]3CC[C@@H](C2)N3)nn1" :
Response: inactive

Query: Call for entry "O=C(O)c1ccc2[nH]cc(CCCCN3CC=C(c4ccccc4)CC3)c2c1" :
Response: active

Query: Call for entry "O=C(O)COc1nc(Cl)c(Cl)cc1Cl" :
Response: inactive

Query: Call for entry "CN[C@@H](C)[C@H](O)c1ccccc1" :
Response: inactive

Query: Call for entry "CN(C)CCc1ccc(O)cc1" :
Response: inactive

Query: Call for entry "COc1ccccc1N1CCNCC1" :
Response: inactive

Query: Call for entry "COC[C@H]1OC(=O)c2coc3c2[C@@]1(C)C1=C(C3=O)[C@@H]2CC[C@H](O)[C@@]2(C)C[C@H]1OC(C)=O" :
Response: active

* * *

Experiment: Viability qHTS for spleen associated tyrosine kinase inhibitor (SYKi) naive MV4-11 cells (AID 1963823); further: nearly all actives have a fitted effect of over 40% in size; further: potency means the concentration at half of the fitted maximal effect
Settings: MV4-11 AML viability, CellTiter-Glo luminescence, 72 h; series mostly up to 45 µM
Results filed as inconclusive are left out. Active and inactive are the calls of the source. The call rests on the fitted dose curve; in most records, active means well fitted cell-killing curve with a large enough effect; inconclusive means small, poorly fitted or top-dose-only effect, or effect the other way; inactive means no such curve, though single readings can be large or run the other way.
observedProperty: Potency

// solved cases for Potency follow
* CN1CCC(N(Cc2ccccc2)c2ccccc2)CC1 | inactive
* CC[N+]1(CC)CCC(OC(=O)C(O)(c2ccccc2)c2ccccc2)C1 (centres undefined) | inactive
* O=C(CCCN1CCC2(CC1)C(=O)NCN2c1ccccc1)c1ccc(F)cc1 | inactive
* COP(=S)(OC)Oc1ccc(S(N)(=O)=O)cc1 | inactive
* CCOP(=S)(OCC)Oc1ccc2c(C)c(Cl)c(=O)oc2c1 | inactive
* Cc1ncc(CNC(=O)N(CCCl)N=O)c(N)n1 | inactive
* CCOP(=S)(OCC)Oc1cc(C)nc(C(C)C)n1 | inactive
* Cn1c(COP(=O)(NCCBr)NCCBr)cnc1[N+](=O)[O-] | 10.5 µM (active)

Query: For the compound C[C@@]12C[C@@H](c3ccoc3)OC(=O)C1CC[C@]1(C)[C@H]2[C@H]2C=C[C@]1(O)C(=O)O2 (some centres undefined) , what Potency is on record?
Response: inactive

Query: For the compound "C[C@@H]1CCC/C=C/[C@H]2C[C@@H](O)C[C@@H]2[C@@H](O)/C=C/C(=O)O1" , what Potency is on record?
Response: 0.184 µM (active)

Query: For the compound COC1C(O)C(C)OC(OC2C(CO)O[C@@H](O[C@@H]3CC4CCC5C(CC[C@]6(C)[C@@H](C7=CC(=O)OC7)CC[C@]56O)[C@@]4(C)[C@H](OC(C)=O)C3)C(O)C2O)C1O (some centres undefined) , what Potency is on record?
Response: 2.43 µM (active)
